molecular target: CDK4/cyclin D3 (Homo sapiens, UniProt P11802); construct: made in house; host or cells: insect cells (baculovirus co-infection); assay: Inhibition of CDK4/Cyclin D retinoblastoma kinase activity; type: biochemical; conditions: test compound at 0.1 μM; read-out: % Inhib CDK4/D @ 0.1 μM
Sequence (P11802 whole entry): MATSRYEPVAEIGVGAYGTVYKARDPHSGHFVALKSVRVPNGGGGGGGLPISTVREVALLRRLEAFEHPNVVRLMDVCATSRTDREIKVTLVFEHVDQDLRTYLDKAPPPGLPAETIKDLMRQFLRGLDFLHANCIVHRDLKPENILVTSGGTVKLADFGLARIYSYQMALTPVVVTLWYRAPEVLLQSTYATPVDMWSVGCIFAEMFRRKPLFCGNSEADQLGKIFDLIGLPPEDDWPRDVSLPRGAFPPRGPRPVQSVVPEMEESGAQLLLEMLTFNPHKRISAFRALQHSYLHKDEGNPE
Sequence (P30281 1-264 partner limits assumed): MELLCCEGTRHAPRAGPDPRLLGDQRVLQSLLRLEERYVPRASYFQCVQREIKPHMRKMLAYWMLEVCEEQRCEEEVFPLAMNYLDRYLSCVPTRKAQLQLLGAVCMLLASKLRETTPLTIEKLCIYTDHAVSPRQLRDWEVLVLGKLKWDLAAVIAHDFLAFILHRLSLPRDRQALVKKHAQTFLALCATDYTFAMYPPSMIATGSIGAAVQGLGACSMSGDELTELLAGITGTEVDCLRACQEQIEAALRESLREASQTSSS
Measurement kind: inhibition at 0.1 µM (%)

Worked examples, 5 molecules total:
CN(C)CCC[S+]([O-])c1ccc(Nc2nc(N)c(C(=O)c3c(Cl)cccc3Cl)s2)cc1 (centres unmarked) [DD(90)]; 44
CC1(C[S+]([O-])c2ccc(Nc3nc(N)c(C(=O)c4c(Cl)cccc4Cl)s3)cc2)CO1 (centres unmarked) [DD(100)]; 33
CCC(CC)C[S+]([O-])c1cccc(Nc2nc(N)c(C(=O)c3c(Cl)cccc3Cl)s2)c1 (centres unmarked) [DD(156)]; 25
Nc1nc(Nc2ccc([S+]([O-])CC3CCCO3)cc2)sc1C(=O)c1c(Cl)cccc1Cl (centres unmarked) [DD(98)]; 21
CN(C)CCS(=O)(=O)c1ccc(Nc2nc(N)c(C(=O)c3c(Cl)cccc3Cl)s2)cc1 [DD(232)]; 26

P: Nc1nc(Nc2cccc([S+]([O-])CC(O)CO)c2)sc1C(=O)c1c(Cl)cccc1Cl (centres unmarked) [DD(154)]
Q: CN1CCCC(CSc2ccc(Nc3nc(N)c(C(=O)c4c(Cl)cccc4Cl)s3)cc2)C1 (centres unmarked) [DD(27)]
R: CC(C)CCCS(=O)(=O)c1ccc(Nc2nc(N)c(C(=O)c3c(Cl)cccc3Cl)s2)cc1 [DD(190)]
Rank items: key inhibition at 0.1 µM, increasing. Put the labels in the order asked and list them.
Q, R, P

====

target: CDK2/cyclin A (Homo sapiens); construct: cyclin A: E. coli, then limited proteolysis; test: Inhibition of CDK2/Cyclin A retinoblastoma kinase activity; settings: apparent Ki, Rb fragment substrate
Measurement kind: Ki (nM)

Nc1nc(Nc2ccc(S(=O)(=O)NCCCN3CCCC3)cc2)sc1C(=O)c1c(F)cccc1F [Example A(8)]; 11

1: COCCNS(=O)(=O)c1ccc(Nc2nc(N)c(C(=O)c3c(F)cccc3F)s2)cc1 [Example A(3)]
2: CC1CCCCN1CCCNS(=O)(=O)c1ccc(Nc2nc(N)c(C(=O)c3c(F)cccc3F)s2)cc1 (stereo not drawn) [Example A(15)]
3: Nc1nc(Nc2cccc(S)c2)sc1C(=O)c1c(Cl)cccc1Cl [X(2)]
Order these by Ki, descending, and give the full ranking. Put the labels in the order asked and list them.
3, 2, 1
(3: 1600 nM, 2: 8.2 nM, 1: 3.5 nM)

====

molecular target: CDK4/cyclin D3 (Homo sapiens, UniProt P11802); construct: made in house; host or cells: insect cells (baculovirus co-infection); assay: Inhibition of CDK4/Cyclin D retinoblastoma kinase activity; format: biochemical; conditions: test compound at 1 μM (head line shifted: 'mM' printed beside 'Structure'); 1 µM;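 as to % Inhib CDK4/D @ 1 μM: relative to DMSO control wells without compound minus no-enzyme background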
Measurement kind: % Inhib CDK4/D @ 1 μM (%)

CN1CCCC1CCS(=O)(=O)c1ccc(Nc2nc(N)c(C(=O)c3c(Cl)cccc3Cl)s2)cc1 (centres unmarked) [DD(179)]; 9.4
CC(C)CCOC(=O)CS(=O)(=O)c1ccc(Nc2nc(N)c(C(=O)c3c(Cl)cccc3Cl)s2)cc1 [DD(191)]; 9.3
CC(C)CCS(=O)(=O)c1ccc(Nc2nc(N)c(C(=O)c3c(Cl)cccc3Cl)s2)cc1 [DD(173)]; 14.5

a: Nc1nc(Nc2ccc(S(=O)(=O)CCN3CCOCC3)cc2)sc1C(=O)c1c(Cl)cccc1Cl [DD(239)]
b: C=CCCS(=O)(=O)c1ccc(Nc2nc(N)c(C(=O)c3c(Cl)cccc3Cl)s2)cc1 [DD(166)]
c: COC(=O)CS(=O)(=O)c1ccc(Nc2nc(N)c(C(=O)c3c(Cl)cccc3Cl)s2)cc1 [DD(226)]
d: COc1cccc(CS(=O)(=O)c2ccc(Nc3nc(N)c(C(=O)c4c(Cl)cccc4Cl)s3)cc2)c1 [DD(217)]
e: CC(C)CCS(=O)(=O)c1ccc(Nc2nc(N)c(C(=O)c3c(Cl)cccc3Cl)s2)cc1 [DD(213)]
Order these by % Inhib CDK4/D @ 1 μM, descending, and give the full ranking. Put the labels in the order asked and list them.
b, a, c, e, d
(b: 14.5%, a: 8%, c: −3.9%, e: −11%, d: −21%)
